# assay_system: human cloned somatostatin receptor 5 (human) (UniProt P35346)
# Sequence (P35346 whole entry): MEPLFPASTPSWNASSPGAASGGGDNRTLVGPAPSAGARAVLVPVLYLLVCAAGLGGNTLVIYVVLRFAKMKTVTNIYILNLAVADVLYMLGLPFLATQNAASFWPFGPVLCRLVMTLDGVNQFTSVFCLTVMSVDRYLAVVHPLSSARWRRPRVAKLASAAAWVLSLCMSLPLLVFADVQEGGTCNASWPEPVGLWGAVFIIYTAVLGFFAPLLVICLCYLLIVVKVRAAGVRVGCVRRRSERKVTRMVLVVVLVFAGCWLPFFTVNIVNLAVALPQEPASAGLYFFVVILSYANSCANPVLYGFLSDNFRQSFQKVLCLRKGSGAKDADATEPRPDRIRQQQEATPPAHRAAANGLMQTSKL
# assay_text: 125I-Tyr11-SRIF-14 displacement
*1 amine or outer side, *2 acyl side, *3 side chain or, on linkers, in order; H or OH if unused. Bridges are numbered along the chain shown (N, C = ends). [ ]: non-standard residue; d: D form. The star is where a group is joined. DOTA = O=C(O)CN1CCN(CC(=O)O)CCN(CC(=O)*)CCN(CC(=O)O)CC1; N(2-mercaptoethyl)Gly = O=C(CN(CCS[*:3])[*:1])[*:2]; Orn = NCCC[C@H](N)C(=O)O; Aoc = NCCCCCCCC(=O)O; CPT = camptothecin; GABA = NCCCC(=O)O
endpoint_name: % displacement at 10 nM (%)
Give just the number in %; leave the unit off.

I'd like to know its % displacement at 10 nM. The binder in question is {DOTA}-[dF]EE[Orn]CF[dW]KTF[N(2-mercaptoethyl)Gly]-NH2 (disulfide 5-11; SMILES C[C@@H](O)[C@@H]1NC(=O)[C@H](CCCCN)NC(=O)[C@@H](Cc2c[nH]c3ccccc23)NC(=O)[C@H](Cc2ccccc2)NC(=O)[C@@H](NC(=O)[C@H](CCCN)NC(=O)[C@H](CCC(=O)O)NC(=O)[C@H](CCC(=O)O)NC(=O)[C@@H](Cc2ccccc2)NC(=O)CN2CCN(CC(=O)O)CCN(CC(=O)O)CCN(CC(=O)O)CC2)CSSCCN(CC(N)=O)C(=O)[C@H](Cc2ccccc2)NC1=O) [SEQ ID NO: 22] 0

I'd like to know its % displacement at 10 nM. The binder in question is {DOTA}-F[dF]RCF[dW]KTF[N(2-mercaptoethyl)Gly]-NH2 (disulfide 4-10; SMILES C[C@@H](O)[C@@H]1NC(=O)[C@H](CCCCN)NC(=O)[C@@H](Cc2c[nH]c3ccccc23)NC(=O)[C@H](Cc2ccccc2)NC(=O)[C@@H](NC(=O)[C@H](CCCNC(=N)N)NC(=O)[C@@H](Cc2ccccc2)NC(=O)[C@H](Cc2ccccc2)NC(=O)CN2CCN(CC(=O)O)CCN(CC(=O)O)CCN(CC(=O)O)CC2)CSSCCN(CC(N)=O)C(=O)[C@H](Cc2ccccc2)NC1=O) [SEQ ID NO: 20] 0

I'd like to know its % displacement at 10 nM. The binder in question is {DOTA}-[dF]E[Orn]CF[dW]KTF[N(2-mercaptoethyl)Gly]-NH2 (disulfide 4-10; SMILES C[C@@H](O)[C@@H]1NC(=O)[C@H](CCCCN)NC(=O)[C@@H](Cc2c[nH]c3ccccc23)NC(=O)[C@H](Cc2ccccc2)NC(=O)[C@@H](NC(=O)[C@H](CCCN)NC(=O)[C@H](CCC(=O)O)NC(=O)[C@@H](Cc2ccccc2)NC(=O)CN2CCN(CC(=O)O)CCN(CC(=O)O)CCN(CC(=O)O)CC2)CSSCCN(CC(N)=O)C(=O)[C@H](Cc2ccccc2)NC1=O) [SEQ ID NO: 23] 0

I'd like to know its % displacement at 10 nM. The binder in question is {DOTA-GABA}-[dF]RCF[dW]KTF[N(2-mercaptoethyl)Gly]-NH2 (disulfide 3-9; also: Ga complex of DOTA) [SEQ ID NO: 8] 15

I'd like to know its % displacement at 10 nM. The binder in question is {DOTA-Aoc}-[dF]RCF[dW]KTF[N(2-mercaptoethyl)Gly]-NH2 (disulfide 3-9) [SEQ ID NO: 15] 0

I'd like to know its % displacement at 10 nM. The binder in question is {DOTA}-[dF][Orn]CF[dW]KTF[N(2-mercaptoethyl)Gly]-NH2 (disulfide 3-9) [SEQ ID NO: 21] 0

I'd like to know its % displacement at 10 nM. The binder in question is {CPT-Aoc}-[dF]RCF[dW]KTF[N(2-mercaptoethyl)Gly]-NH2 (disulfide 3-9) [SEQ ID NO: 27] 0

I'd like to know its % displacement at 10 nM. The binder in question is {DOTA}-G[dF]RCF[dW]KTF[N(2-mercaptoethyl)Gly]-NH2 (disulfide 4-10; SMILES C[C@@H](O)[C@@H]1NC(=O)[C@H](CCCCN)NC(=O)[C@@H](Cc2c[nH]c3ccccc23)NC(=O)[C@H](Cc2ccccc2)NC(=O)[C@@H](NC(=O)[C@H](CCCNC(=N)N)NC(=O)[C@@H](Cc2ccccc2)NC(=O)CNC(=O)CN2CCN(CC(=O)O)CCN(CC(=O)O)CCN(CC(=O)O)CC2)CSSCCN(CC(N)=O)C(=O)[C@H](Cc2ccccc2)NC1=O) [SEQ ID NO: 11] 0

I'd like to know its % displacement at 10 nM. The binder in question is {DOTA}-[dF]KCF[dW]KTF[N(2-mercaptoethyl)Gly]-NH2 (disulfide 3-9; SMILES C[C@@H](O)[C@@H]1NC(=O)[C@H](CCCCN)NC(=O)[C@@H](Cc2c[nH]c3ccccc23)NC(=O)[C@H](Cc2ccccc2)NC(=O)[C@@H](NC(=O)[C@H](CCCCN)NC(=O)[C@@H](Cc2ccccc2)NC(=O)CN2CCN(CC(=O)O)CCN(CC(=O)O)CCN(CC(=O)O)CC2)CSSCCN(CC(N)=O)C(=O)[C@H](Cc2ccccc2)NC1=O) [SEQ ID NO: 9] 12

I'd like to know its % displacement at 10 nM. The binder in question is H-XRCF[dW]KTY[N(2-mercaptoethyl)Gly]-NH2 (disulfide 3-9; not fully specified (residue 1); printed as H-Phe1-Arg2-Cys3-Phe4-D-Trp5-Lys6-Thr7-Tyr8-NTEG9-NH2 (cyclo 3-9)) [SEQ ID NO: 26] 1

I'd like to know its % displacement at 10 nM. The binder in question is {DOTA}-[dF]RCY[dW]KTF[N(2-mercaptoethyl)Gly]-NH2 (disulfide 3-9; SMILES C[C@@H](O)[C@@H]1NC(=O)[C@H](CCCCN)NC(=O)[C@@H](Cc2c[nH]c3ccccc23)NC(=O)[C@H](Cc2ccc(O)cc2)NC(=O)[C@@H](NC(=O)[C@H](CCCNC(=N)N)NC(=O)[C@@H](Cc2ccccc2)NC(=O)CN2CCN(CC(=O)O)CCN(CC(=O)O)CCN(CC(=O)O)CC2)CSSCCN(CC(N)=O)C(=O)[C@H](Cc2ccccc2)NC1=O) [SEQ ID NO: 25] 16

Data credit: patent US20240165282A1
